Experiment: Pharmacokinetics and oral bioavailability in beagle dog
Format: in vivo
Settings: 40 mg/kg p.o., dog; read-out: Mean peak plasma concentration (Cmax) of intact prodrug, oral
Procedure: Following an i.v. bolus and oral administration of 8 and 40 mg/kg (prodrug equivalent dose), respectively, of Compound 4 in PEG-400 to male beagle dogs (n=4), blood samples were collected at the following times: 5, 15, 30, 45 min and 1, 2, 4, 6, 8, 12, and 24 hrs post each dosing occasion. […] Intact Compound 4 and PMEA were measured in the plasma and urine samples using an LC-MS/MS method. PK parameters were determined by non-compartmental analysis.
MEASURED_QUANTITY: Cmax

Using the record for Nc1ncnc2c1ncn2CCOCP1(=O)OCCC(c2cccc(Cl)c2)O1 (racemic) , state its measured Cmax. ~24 µM
